- System: Saccharomyces cerevisiae
- Test: protein stability index of tFT-peptide fusion (C-terminal peptide) (PSI (0-1 scale)); higher = more stable (slower turnover)
- Stated conditions: genetic background: wild type; temperature: 30 C
Endpoint name: protein stability index
Lab note: record just the number, no unit beside it.

Completed entries (count: 3):
MVRRDGMTVSLG	0.719
VVGDGVWCLSVG	0.721
PFWTPASPPSFY	0.748

Q: Provide protein stability index, tested on Saccharomyces cerevisiae, for GGACGRRSEDCQ .
A: 0.633

Q: Report its protein stability index with Saccharomyces cerevisiae as the test system: HTLQDERNRRRD
A: 0.696

Q: Report protein stability index from Saccharomyces cerevisiae testing of RGYLAKELGVKS
A: 0.652

Q: Enter protein stability index (test system Saccharomyces cerevisiae) for GGSESRGSDRWE
A: 0.633

Q: Name the value of protein stability index reported for GVGGGMGMGERW when tested on Saccharomyces cerevisiae.
A: 0.788

Q: Name the value of protein stability index reported for LIHSSCSCPWCD when tested on Saccharomyces cerevisiae.
A: 0.666

###

- System: Saccharomyces cerevisiae
- Test: protein stability index of tFT-peptide fusion (C-terminal peptide) (PSI (0-1 scale)); higher = more stable (slower turnover)
- Stated conditions: genetic background: wild type; temperature: 30 C
Readings of protein stability index for the listed sequences
# respond with the number and nothing more

A selection of reference data follows.
IRPRRFSPGSTR	0.7
PSSWGRFLRRRP	0.7
WDHGDHTAMVSI	0.683
PSPPPSLLPTPP	0.679
HPPLAPQPPPPP	0.711

Q: Identify the reported protein stability index for the following entry. PLLSPPSPPPPT
A: 0.713

Q: Quick one: give measured protein stability index for PLPLAPHPDYSL
A: 0.687

Q: For DHLTGTPPSPTV , write its protein stability index.
A: 0.72

Q: Consider the sequence RRAKMSWCCKKY and give its recorded protein stability index.
A: 0.69

Q: Return the recorded protein stability index value; entry: SLRLMTFPPLLL
A: 0.68

Q: Identify the reported protein stability index for the following entry. CAIGTGTKVKPS
A: 0.684

Q: Report measured protein stability index; entry is WVVSRGPFAVGP
A: 0.68

Q: Give the reported protein stability index for this sequence. SRDIKTDCLRRV
A: 0.688

###

- Tested on: Saccharomyces cerevisiae
- Test: protein stability index of tFT-peptide fusion in deletion strain of DAS1 (PSI (0-1 scale)); higher = more stable (slower turnover)
Endpoint name: protein stability index
Please state the value as a number alone, without comment.

ARWRVGLWRGAS	0.679
LKIYRQKMNHQN	0.689
CTKCGYKFRTNN	0.687

Q: Return the recorded protein stability index value; entry: PRLAASFWRVVG
A: 0.691

Q: Tell us which protein stability index value is on record for PDKRNHLIKLKN
A: 0.599

Q: Supply measured protein stability index of RLIQPLPMQFLN in your reply.
A: 0.636

Q: Look up and state reported protein stability index for PDKRNHAIKLLN
A: 0.603

###

- Test system: Saccharomyces cerevisiae
- Test: protein stability index of tFT-peptide fusion (C-terminal peptide) (PSI (0-1 scale)); higher = more stable (slower turnover)
- Stated conditions: genetic background: wild type; temperature: 30 C
protein stability index values for the sequences below.
Would you mind answering with just the numeric figure?

PPAPPPPPLPSY	0.714
LIILKNKRKNKI	0.704
APRLIALPPPTA	0.711
LGLGIWDCFCVL	0.685
KDQRAKRRRREE	0.679

Q: Return protein stability index for the following sequence: WEAPCGGTLVGR
A: 0.697

Q: Tell me protein stability index reported for GYYPVALDYKLR
A: 0.708

Q: For the sequence RVGRNLRVGGES , give its measured protein stability index value.
A: 0.69

Q: Note protein stability index for the sequence shown: VQSSLSDFYVSS
A: 0.707

Q: Provide one value: measured protein stability index of FRSFGYSGSMLA
A: 0.69

Q: State its protein stability index for this sequence: SPVRPPLSSLYS
A: 0.705

Q: Given SRTAFNRGTTRD , respond with its protein stability index.
A: 0.681

Q: Hello, please tell me recorded protein stability index for this one: KKNKRKLKKKKK
A: 0.72

Q: Recall and state the measured protein stability index for CLLDVVMVVERG .
A: 0.365

Q: Consider the sequence IGLPCSSGCCCH . State its measured protein stability index.
A: 0.702

Q: // Input: KKSDTKKKGQNK . Output its protein stability index only.
A: 0.673

Q: Given HLKPTPPLPPNT , respond with its protein stability index.
A: 0.67

Q: # return recorded protein stability index for entry WLWFVGCLAAPL
A: 0.541

Q: Report protein stability index, nothing else, for this sequence: ILRIYIPRWRRQ
A: 0.219

###

- System: Saccharomyces cerevisiae
- Test: protein stability index of tFT-peptide fusion (C-terminal peptide) (PSI (0-1 scale)); higher = more stable (slower turnover)
- Stated conditions: genetic background: wild type; temperature: 30 C
Endpoint name: protein stability index
// print number alone

The cases that follow already have their protein stability index on record.
IPCKVCQSLIPP	0.611
YDIAVDAEIDPY	0.685
GGLLSQLLRSIG	0.425

Shift focus to the following entry.
Q: Report measured protein stability index on Saccharomyces cerevisiae; entry: DSGYRQWGGTGR
A: 0.714

###

- Tested on: Saccharomyces cerevisiae
- Test: protein stability index of tFT-peptide fusion (C-terminal peptide) (PSI (0-1 scale)); higher = more stable (slower turnover)
- Stated conditions: genetic background: wild type; temperature: 37 C
Endpoint name: protein stability index
Would you mind answering with just the numeric figure?

These recorded examples may help you get a feel for the data.
VGGGGRFWVCVG	0.552
FLLLVFGLLIDS	0.379
PTYSCSIKIQAH	0.517
RCCWWNAQAVWR	0.73
MYESIRILVNKV	0.491
SVVYCRMRVHFV	0.379
GICLVLVSDIWI	0.568
FVWWFFFLSVVS	0.334

Q: Name the value of protein stability index reported for GRVCWVVLAGLV when tested on Saccharomyces cerevisiae.
A: 0.539

Q: Please tell me the measured protein stability index for LPPTPPLSPPPH ; system: Saccharomyces cerevisiae.
A: 0.586

Q: Quote protein stability index with test system Saccharomyces cerevisiae for GGGGMGRRVGVG
A: 0.415

###

- Test system: Saccharomyces cerevisiae
- Test: protein stability index of tFT-peptide fusion (C-terminal peptide) (PSI (0-1 scale)); higher = more stable (slower turnover)
- Stated conditions: genetic background: wild type; temperature: 30 C
Just so you know, the groups by protein stability index go like this: low group = under 0.6, middle group = from 0.6 up to 0.7, high group = 0.7 and over

Examples with answers:
QRPSRAQGKSYE	high group
SLTCRKQTVRVI	low group
VFRSGGNQDIKV	middle group
TISRIQTNINKK	high group
EVDRRRSVITLP	middle group

Q: Category of YRSTPTGPPRPT :
A: high group

Q: The entry to classify is SIRVIVAVRNIS ; which class holds it?
A: low group

Q: Bin this entry: PPLPLPTLPCRP
A: middle group

Q: Please report the category associated with KKKKKKNTHNTK , nothing else.
A: middle group

###

# Lookup of reported protein stability index keyed by entry
- System: Saccharomyces cerevisiae
- Test: protein stability index of tFT-peptide fusion (C-terminal peptide) (PSI (0-1 scale)); higher = more stable (slower turnover)
- Stated conditions: genetic background: wild type; temperature: 30 C
Could you keep your reply to the number by itself?

Observe how each entry below is paired with its result.
PPAPGPPHPPAL	0.651
GTGGIFAVAPTL	0.737
SRGARRRGGAGR	0.656
DQIWHPATRIMC	0.638
PPSPSPPSPPPP	0.656

Q: Give reported protein stability index for NKQTAEIGRGSC (Saccharomyces cerevisiae)
A: 0.651

Q: Specify protein stability index for SPRLLPSPTRVA , system Saccharomyces cerevisiae.
A: 0.643

Q: Recall the reported protein stability index of RPELGLCAGDTN on Saccharomyces cerevisiae and write it down.
A: 0.673

Q: Fetch value of protein stability index on Saccharomyces cerevisiae for VILTAISPAFSV .
A: 0.647

Q: Find protein stability index for PPSPAPLPDSLP on Saccharomyces cerevisiae and write it down.
A: 0.701

###

- Test system: Saccharomyces cerevisiae
- Test: protein stability index of tFT-peptide fusion (C-terminal peptide) (PSI (0-1 scale)); higher = more stable (slower turnover)
- Stated conditions: genetic background: das1 deletion; temperature: 30 C
Label NOT MET if protein stability index falls below 0.6; label MET in every other case.

A selection of reference data follows.
LSPRPPAPYYSP	MET
SLVVMGSLWLRI	NOT MET

Q: Please check the record RGCLVHSGFFIV and state if its protein stability index is at or above 0.6.
A: MET

Q: Threshold query (protein stability index >= 0.6) on WILIGVRFSCFG
A: NOT MET

Q: Could you verify whether the entry LLMWVLFDCHYS shows protein stability index of no less than 0.6?
A: NOT MET

Q: Given IKRLKEVARHVS , state whether its protein stability index is at least 0.6.
A: MET

Q: Kindly determine if protein stability index recorded for SFFYFVFYYLSF is above or exactly 0.6.
A: NOT MET

Q: Has FSMRWTFRYWVN a recorded protein stability index greater than or equal to 0.6?
A: NOT MET

Q: For this sequence, is measured protein stability index 0.6 or higher? IVCAVTSIFLFF
A: NOT MET

Q: Determine whether measured protein stability index meets or exceeds 0.6 for SGFLNVGYLWVC
A: NOT MET

Q: Please tell me: is the sequence YCSIQIQLVYGI at or over 0.6 in terms of protein stability index?
A: NOT MET

Q: Threshold query (protein stability index >= 0.6) on AFLWSLFVFFRF
A: NOT MET

Q: Tell me whether protein stability index is at least 0.6 here: PAPANRPTPRPV
A: MET

Q: Does the sequence CRRQLKVLKSMS have recorded protein stability index that is 0.6 or more?
A: MET

Q: Check the entry VGDFFVLVGFVA : does protein stability index equal or exceed 0.6?
A: NOT MET

Q: Can WGRAADRRRRLG be said to have protein stability index at or above 0.6?
A: MET

Q: Hi, just wondering whether LPTVSRPGALIC shows protein stability index of 0.6 or higher.
A: MET

Q: Reported protein stability index reaches at least 0.6 for TMSGVTRCVLVL ?
A: NOT MET

Q: Kindly determine if protein stability index recorded for GPRRARLPNFLA is above or exactly 0.6.
A: MET

Q: Say whether VVRAVLCVCASV shows protein stability index of 0.6 or more.
A: NOT MET

Q: Does the sequence LVLSFVMLVSGH have recorded protein stability index that is 0.6 or more?
A: NOT MET

Q: Does protein stability index meet or surpass 0.6 for GGRWRRRGFFFS ?
A: MET
